Target: PI3K-alpha (Homo sapiens, UniProt P42336)
Sequence (P42336 whole entry, species assumed): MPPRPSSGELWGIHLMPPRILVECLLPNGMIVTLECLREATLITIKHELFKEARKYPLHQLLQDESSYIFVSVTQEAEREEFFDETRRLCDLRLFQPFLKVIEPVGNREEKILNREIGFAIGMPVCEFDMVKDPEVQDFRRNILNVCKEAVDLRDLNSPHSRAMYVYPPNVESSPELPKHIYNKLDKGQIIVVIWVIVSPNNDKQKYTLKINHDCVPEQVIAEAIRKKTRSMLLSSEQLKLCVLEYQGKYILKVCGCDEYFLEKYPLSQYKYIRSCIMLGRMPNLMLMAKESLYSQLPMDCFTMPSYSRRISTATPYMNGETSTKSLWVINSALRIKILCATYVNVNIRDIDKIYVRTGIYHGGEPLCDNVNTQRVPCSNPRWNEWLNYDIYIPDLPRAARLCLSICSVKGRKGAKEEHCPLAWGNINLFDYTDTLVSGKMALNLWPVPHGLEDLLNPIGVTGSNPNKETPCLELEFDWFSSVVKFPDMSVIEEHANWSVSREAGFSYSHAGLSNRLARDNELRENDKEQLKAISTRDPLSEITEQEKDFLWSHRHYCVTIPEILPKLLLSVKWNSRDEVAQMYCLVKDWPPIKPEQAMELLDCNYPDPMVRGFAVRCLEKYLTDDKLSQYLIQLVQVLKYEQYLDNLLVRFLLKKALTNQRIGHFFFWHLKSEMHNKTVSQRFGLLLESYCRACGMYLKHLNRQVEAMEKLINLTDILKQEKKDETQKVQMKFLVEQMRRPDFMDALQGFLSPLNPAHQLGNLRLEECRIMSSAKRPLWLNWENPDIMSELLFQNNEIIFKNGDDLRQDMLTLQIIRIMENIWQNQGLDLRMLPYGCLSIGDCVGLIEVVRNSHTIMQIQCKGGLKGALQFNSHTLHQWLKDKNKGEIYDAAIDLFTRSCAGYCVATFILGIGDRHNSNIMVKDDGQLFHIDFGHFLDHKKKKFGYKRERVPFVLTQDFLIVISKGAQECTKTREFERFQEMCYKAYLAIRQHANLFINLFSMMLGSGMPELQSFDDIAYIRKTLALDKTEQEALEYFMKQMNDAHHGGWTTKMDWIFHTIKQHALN
Sequence (P27986 whole entry partner, species assumed): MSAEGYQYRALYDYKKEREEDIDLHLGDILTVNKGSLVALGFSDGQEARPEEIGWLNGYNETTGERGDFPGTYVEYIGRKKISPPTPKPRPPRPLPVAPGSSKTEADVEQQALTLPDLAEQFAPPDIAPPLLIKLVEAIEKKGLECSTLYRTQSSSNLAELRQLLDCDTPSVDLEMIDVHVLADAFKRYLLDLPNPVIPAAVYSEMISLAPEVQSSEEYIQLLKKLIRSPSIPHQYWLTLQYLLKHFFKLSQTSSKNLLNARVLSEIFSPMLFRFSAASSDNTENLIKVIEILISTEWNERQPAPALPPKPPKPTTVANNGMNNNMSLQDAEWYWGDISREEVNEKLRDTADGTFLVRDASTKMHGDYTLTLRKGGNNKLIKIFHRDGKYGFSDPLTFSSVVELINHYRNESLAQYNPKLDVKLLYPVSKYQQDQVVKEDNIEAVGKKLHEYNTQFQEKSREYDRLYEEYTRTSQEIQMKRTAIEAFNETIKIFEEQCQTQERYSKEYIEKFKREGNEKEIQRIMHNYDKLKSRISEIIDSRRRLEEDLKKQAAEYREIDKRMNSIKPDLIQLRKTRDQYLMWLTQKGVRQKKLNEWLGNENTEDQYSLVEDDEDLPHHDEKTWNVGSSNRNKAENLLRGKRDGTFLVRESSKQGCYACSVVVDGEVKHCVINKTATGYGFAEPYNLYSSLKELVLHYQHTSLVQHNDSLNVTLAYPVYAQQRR
Assay: PI3K-alpha fluorescence polarization assay
Format: biochemical
Conditions: read-out: PI3Kα Avg. IC50
For each of the molecules below, state its IC50.
Answers are plain numbers, in nM.

Consider the reported IC50 for these molecules:
chemical smiles: COc1ccc2c(c1)c(/C=C1\Oc3ccc(NC(=O)NCCN)cc3C1=O)c(C1CCCC1)n2CCN1CCN(C)CC1
IC50 / nM: 1.1
--
chemical smiles: O=C1/C(=C/c2c(-c3ccccc3)[nH]c3ccccc23)Oc2c1ccc(O)c2O
IC50 / nM: 182
--
chemical smiles: CNC(=O)Nc1ccc2c(c1)C(=O)/C(=C/c1c(-c3cccc(CN(C)C)c3)[nH]c3ccc(OC)cc13)O2
IC50 / nM: 1.3

Hey, can you go through the list below and give me IC50 for every item?
1. CNC(=O)Nc1ccc2c(c1)C(=O)/C(=C/c1c(C(C)(C)C)[nH]c3ccc(OC)cc13)O2
2. Cc1[nH]c2ccc(Cl)cc2c1C=C1Oc2cc(O)cc(O)c2C1=O
3. CNC(=O)Nc1ccc2c(c1)C(=O)/C(=C/c1c(-c3c(C)nn(C)c3C)[nH]c3c(F)cc(OC)cc13)O2
4. Cn1c(-c2ccccc2)c(/C=C2\Oc3cc(O)cc(O)c3C2=O)c2c([N+](=O)[O-])cccc21
5. COc1ccc2c(c1)c(C=C1Oc3cc(O)cc(O)c3C1=O)cn2CCCCN(C)C
6. Cn1cc(C=C2Oc3cc(O)cc(O)c3C2=O)c2cccc([N+](=O)[O-])c21
7. COc1ccc2c(c1)c(/C=C1\Oc3cc(O)c(F)cc3C1=O)c(C)n2CCN1CCN(C)CC1

[5, 264, 0.75, 342, 37, 735, 66]

Hey, can you go through the list below and give me IC50 for every item?
1. CNC(=O)Nc1ccc2c(c1)C(=O)/C(=C/c1c(C)n(CCN3CCN(C)CC3)c3ccc(OC)cc13)O2
2. Cn1cc(/C=C2\Oc3ccc(N)cc3C2=O)c2c(-c3ccccc3)cccc21
3. COc1ccc2[nH]cc(/C=C3\Oc4ccc(-c5nnn[nH]5)cc4C3=O)c2c1
4. COc1ccc2c(c1)c(/C=C1\Oc3cc(O)ccc3C1=O)c(C)n2CCCN(C)C

1: 2.15; 2: 5880; 3: 12000; 4: 18.5

###

Biological target: PI3K-delta (Homo sapiens)
Sequence (O00329 whole entry, species assumed): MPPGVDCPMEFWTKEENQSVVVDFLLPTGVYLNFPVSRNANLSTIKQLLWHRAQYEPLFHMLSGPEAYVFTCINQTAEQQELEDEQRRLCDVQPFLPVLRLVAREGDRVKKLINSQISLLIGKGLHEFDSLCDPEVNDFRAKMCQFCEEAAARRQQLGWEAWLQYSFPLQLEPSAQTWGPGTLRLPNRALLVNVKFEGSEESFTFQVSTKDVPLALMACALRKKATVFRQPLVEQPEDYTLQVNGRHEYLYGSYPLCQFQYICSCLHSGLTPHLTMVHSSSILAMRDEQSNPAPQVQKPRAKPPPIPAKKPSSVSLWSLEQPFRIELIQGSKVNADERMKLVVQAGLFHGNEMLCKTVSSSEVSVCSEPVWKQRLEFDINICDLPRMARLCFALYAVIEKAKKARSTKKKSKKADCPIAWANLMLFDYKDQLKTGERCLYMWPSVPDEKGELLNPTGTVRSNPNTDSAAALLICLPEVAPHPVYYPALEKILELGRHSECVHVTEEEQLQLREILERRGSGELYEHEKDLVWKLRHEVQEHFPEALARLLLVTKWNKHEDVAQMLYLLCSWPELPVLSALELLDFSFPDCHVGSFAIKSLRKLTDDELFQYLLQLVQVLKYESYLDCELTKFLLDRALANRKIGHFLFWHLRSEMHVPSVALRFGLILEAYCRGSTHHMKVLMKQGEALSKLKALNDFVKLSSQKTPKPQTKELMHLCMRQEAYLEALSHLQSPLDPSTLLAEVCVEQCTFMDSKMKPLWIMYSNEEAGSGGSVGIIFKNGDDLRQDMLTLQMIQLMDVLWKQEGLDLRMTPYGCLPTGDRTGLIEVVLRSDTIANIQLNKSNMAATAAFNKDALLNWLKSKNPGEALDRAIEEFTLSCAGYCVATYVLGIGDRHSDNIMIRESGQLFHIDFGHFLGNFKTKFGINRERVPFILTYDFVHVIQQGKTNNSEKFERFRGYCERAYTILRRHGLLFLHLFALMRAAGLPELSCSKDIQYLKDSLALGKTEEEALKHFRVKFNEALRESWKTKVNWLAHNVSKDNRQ
Sequence (P27986 whole entry partner, species assumed): as the sequence (P27986 whole entry partner, species assumed) above
Assay: PI3K-delta fluorescence polarization assay
Format: biochemical
Conditions: read-out: PI3Kδ Avg. IC50
readout name: IC50 (nM)
Answers are plain numbers, in nM.

Consider the reported IC50 for these molecules:
chemical smiles: COc1ccc2c(c1)c(/C=C1\Oc3cc(O)ccc3C1=O)c(C)n2CCCN(C)C
IC50 / nM: 2.5
--
chemical smiles: COc1ccc2[nH]c(-c3ccccc3)c(/C=C3\Oc4cccc(O)c4C3=O)c2c1
IC50 / nM: 17
--
chemical smiles: COc1cc2c(C=C3Oc4cc(O)cc(O)c4C3=O)c(C)[nH]c2cc1C
IC50 / nM: 193
--
chemical smiles: COc1ccc2c(c1)c(/C=C1\Oc3cc(O)cc(O)c3C1=O)c(C1CC1)n2CCn1cccn1
IC50 / nM: 1.6
--
chemical smiles: COc1ccc2c(c1)c(/C=C1\Oc3cc(O)cc(O)c3C1=O)c(C)n2CCn1ccnc1
IC50 / nM: 2

Hey, can you go through the list below and give me IC50 for every item?
1. COc1ccc2c(c1)c(/C=C1\Oc3cc(O)ccc3C1=O)c(C1CC1)n2CCn1cccn1
2. Cc1[nH]c2ccc(Br)cc2c1/C=C1\Oc2cc(O)cc(O)c2C1=O

[2.5, 374]

###

For each of the molecules below, state its IC50.
Target: PI3K-gamma (Homo sapiens, UniProt P48736)
Sequence (P48736 whole entry, species assumed): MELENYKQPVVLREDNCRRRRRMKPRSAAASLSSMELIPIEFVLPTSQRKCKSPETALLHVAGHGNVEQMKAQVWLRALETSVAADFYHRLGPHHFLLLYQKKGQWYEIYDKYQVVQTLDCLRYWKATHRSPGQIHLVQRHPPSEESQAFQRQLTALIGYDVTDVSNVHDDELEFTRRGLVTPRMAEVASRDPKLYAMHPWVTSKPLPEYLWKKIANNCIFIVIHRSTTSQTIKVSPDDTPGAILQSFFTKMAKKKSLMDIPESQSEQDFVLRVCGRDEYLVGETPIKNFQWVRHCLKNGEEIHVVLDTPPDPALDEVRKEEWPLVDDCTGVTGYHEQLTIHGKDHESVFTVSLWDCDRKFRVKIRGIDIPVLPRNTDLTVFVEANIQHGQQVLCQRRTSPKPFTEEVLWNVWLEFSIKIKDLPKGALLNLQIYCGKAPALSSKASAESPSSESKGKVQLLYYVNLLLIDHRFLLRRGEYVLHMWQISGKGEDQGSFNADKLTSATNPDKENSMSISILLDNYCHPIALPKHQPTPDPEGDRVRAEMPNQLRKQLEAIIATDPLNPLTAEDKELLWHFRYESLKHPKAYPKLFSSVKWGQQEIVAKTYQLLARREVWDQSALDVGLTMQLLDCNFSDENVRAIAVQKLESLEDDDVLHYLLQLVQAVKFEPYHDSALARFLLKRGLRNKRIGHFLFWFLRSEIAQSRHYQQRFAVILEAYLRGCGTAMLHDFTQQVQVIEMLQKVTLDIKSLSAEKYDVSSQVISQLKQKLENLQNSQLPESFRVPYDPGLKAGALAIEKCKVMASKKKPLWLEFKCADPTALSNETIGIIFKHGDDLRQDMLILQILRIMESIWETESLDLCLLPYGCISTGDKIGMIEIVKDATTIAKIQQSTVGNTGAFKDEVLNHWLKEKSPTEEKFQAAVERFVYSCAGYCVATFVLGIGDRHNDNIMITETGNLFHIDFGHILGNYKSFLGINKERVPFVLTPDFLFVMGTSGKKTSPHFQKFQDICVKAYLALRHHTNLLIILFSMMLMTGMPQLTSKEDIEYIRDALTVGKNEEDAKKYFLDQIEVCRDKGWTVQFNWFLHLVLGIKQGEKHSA
Assay: PI3K-gamma fluorescence polarization assay
Format: biochemical
Conditions: PI3Kγ Avg. IC50
Protocol: PI3K-Alpha, PI3K-Beta, PI3K-Gamma, and PI3K-delta Fluorescence Polarization Assay Protocols PI3-Kinase reactions were performed in 5 mM HEPES, pH 7, 2.5 mM MgCl2, and 25 μM ATP, with diC8-PI(4,5)P2 (Echelon, Salt Lake City Utah) as substrate. Nunc 384-well black polypropylene fluorescent plates were used for PI3K assays. […] Assay Plates were read on Perkin-Elmer Envision plate readers with appropriate filters for Tamra [BODIPY-TMRI(1,3,4,5)P4]. […]
One number for each entry, in nM.

Consider the reported IC50 for these molecules:
chemical smiles: COc1ccc2c(c1)c(C=C1Oc3cccc(O)c3C1=O)c(C)n2C
test system: PI3K-gamma (Homo sapiens, UniProt P48736)
units: nM
IC50: 5430
//
chemical smiles: COc1ccc2c(c1)c(/C=C1\Oc3cc(O)cc(O)c3C1=O)c(C1CCCCC1)n2CCN1CCN(C)CC1
test system: PI3K-gamma (Homo sapiens, UniProt P48736)
units: nM
IC50: 105
//
chemical smiles: COc1ccc2c(c1)c(/C=C1\Oc3cc(O)cc(O)c3C1=O)c(C1CC1)n2CCO
test system: PI3K-gamma (Homo sapiens, UniProt P48736)
units: nM
IC50: 16.5

Would you kindly share the measured IC50 for COc1ccc2c(c1)c(C=C1Oc3cc(O)cc(O)c3C1=O)c(C)n2CCN1CCN(CCO)CC1 ?
321

###

Molecular target: human TOR (Homo sapiens, UniProt P42345)
Construct: FLAG
Experiment: mTOR enzyme assay (DELFIA, His6-S6K substrate)
Format: biochemical
Conditions: read-out: mTOR Kinase Avg. IC50
Could you please mark condition met for values of IC50 below 100 nM and condition not met for values at or above it?

chemical smiles: CCc1cccc2c(C=C3Oc4cc(O)cc(O)c4C3=O)c[nH]c12
qualitative label: condition not met

Answer whether the compound COc1ccc2c(c1)c(C=C1Oc3cc(O)cc(O)c3C1=O)c(C)n2C has IC50 strictly less than 100 nM
condition met

Queued: CNC(=O)Nc1ccc2c(c1)C(=O)/C(=C/c1c(-c3c(C)nn(C)c3C)n(CCNCCO)c3ccc(OC)cc13)O2
condition met

Queued: O=C1C(=Cc2c(-c3ccccc3)n(CCN3CCOCC3)c3ccccc23)Oc2cc(O)cc(O)c21
condition not met

###

Biological target: PI3K-gamma (Homo sapiens, UniProt P48736)
Test: PI3K-gamma fluorescence polarization assay
Assay type: biochemical
Conditions: PI3Kγ Avg. IC50
For each of the compounds below, state its IC50.
One number for each entry, in nM.

chemical smiles: COc1ccc2c(c1)c(/C=C1\Oc3cc(O)ccc3C1=O)c(C)n2CCCN1CCC(C)CC1
test system: PI3K-gamma (Homo sapiens, UniProt P48736)
IC50 / nM: 1380

chemical smiles: O=C1C(=Cc2c(-c3ccccc3)n(CCN3CCCC3)c3ccccc23)Oc2cc(O)cc(O)c21
test system: PI3K-gamma (Homo sapiens, UniProt P48736)
IC50 / nM: 2430

chemical smiles: Cn1cc(/C=C2\Oc3cc(O)cc(O)c3C2=O)c2c(-c3ccc(N)nc3)cccc21
test system: PI3K-gamma (Homo sapiens, UniProt P48736)
IC50 / nM: 3260

Would you kindly share the measured IC50 for Cn1cc(/C=C2\Oc3cc(O)cc(O)c3C2=O)c2c(-c3cccnc3)cccc21 ?
9500

###

For each of the molecules below, state its IC50.
Target: PI3K-alpha (Homo sapiens)
Assay: PI3K-alpha fluorescence polarization assay
Assay type: biochemical
Conditions: read-out: PI3Kα Avg. IC50
Answers are plain numbers, in nM.

Consider the reported IC50 for these molecules:
molecule: CCn1c(C)c(/C=C2\Oc3ccc(NC(=O)Nc4ccc(C(=O)N(C)CCCN(C)C)cc4)cc3C2=O)c2cc(OC)ccc21
test system: PI3K-alpha (Homo sapiens)
units: nM
IC50: 0.4
//
molecule: O=C1/C(=C/c2c(-c3ccc4ccccc4c3)[nH]c3ccccc23)Oc2c1ccc(O)c2O
test system: PI3K-alpha (Homo sapiens)
units: nM
IC50: 72.7
//
molecule: COc1ccc2c(c1)c(/C=C1\Oc3cc(O)cc(O)c3C1=O)c(C1CC1)n2CC(=O)N(C)C
test system: PI3K-alpha (Homo sapiens)
units: nM
IC50: 65.5
//
molecule: COc1ccc2[nH]c(-c3c(C)nn(C)c3C)c(/C=C3\Oc4ccc(NC(=O)Nc5ccc(N(C)C(=O)CCN(C)C)cc5)cc4C3=O)c2c1
test system: PI3K-alpha (Homo sapiens)
units: nM
IC50: 3

Hey, can you go through the list below and give me IC50 for every item?
1. CCn1c(C)c(/C=C2\Oc3ccc(NC(=O)Nc4ccc(C(=O)N5CCOCC5)cc4)cc3C2=O)c2cc(OC)ccc21
2. Cn1c(-c2ccccc2)c(/C=C2\Oc3cc(O)cc(O)c3C2=O)c2c(N)cccc21
3. Cc1cccc2c1c(/C=C1\Oc3cc(O)cc(O)c3C1=O)c(-c1ccccc1)n2C
4. Cn1cc(/C=C2\Oc3cc(O)cc(O)c3C2=O)c2c(-c3ccncc3)cccc21
5. CCn1c(C)c(/C=C2\Oc3ccc(NC(=O)Nc4ccc(C(=O)N5CCN(C)CC5)cc4)cc3C2=O)c2cc(OC)ccc21
6. O=C1C(=Cc2c(-c3ccccc3)[nH]c3ccccc23)Oc2cc(O)ccc21
7. Cc1ccc2c(c1)C(=O)C(=Cc1c(C)[nH]c3ccc([N+](=O)[O-])cc13)S2

[0.7, 2470, 412, 4770, 0.3, 2400, 9190]
